Origin of measurements: PubChem BioAssay (NCI)

Please respond with reported TGI for every item in the list.
- Tested on: SK-OV-3 ovarian
- TEST_DETAILS: NCI tumour cell line growth inhibition, 48 h

-- ask State measured TGI of the compound CC(=O)Nc1nnc(S(=O)(=O)NC(=S)Nc2ccc(Cl)cc2)s1 with SK-OV-3 ovarian.
-- reply > 100 µM

-- ask State measured TGI of the compound O=C(CN1C(=O)S/C(=C\C(Cl)=C\c2ccccc2)C1=O)NCCCn1ccnc1 with SK-OV-3 ovarian.
-- reply > 100 µM

-- ask State measured TGI of the compound Cc1nc(N(CCO)CCO)c2sc(=S)n(-c3ccccc3)c2n1 with SK-OV-3 ovarian.
-- reply > 100 µM

-- ask State measured TGI of the compound CC1(C)N=C(Oc2ccccc2)n2nccc2N1 with SK-OV-3 ovarian.
-- reply > 100 µM

-- ask State measured TGI of the compound O=C(O)C1CC2CC(=O)C1C2 (configuration not stated) with SK-OV-3 ovarian.
-- reply > 100 µM

-- ask State measured TGI of the compound O=C1/C(=C/c2ccc(Cl)cc2)Sc2scc(-c3cccc([N+](=O)[O-])c3)[n+]21 with SK-OV-3 ovarian.
-- reply 23.6 µM

-- ask State measured TGI of the compound COc1ccc(C2C(Cl)C(=O)N2NC(=O)c2ccccc2O)cc1OC (configuration not stated) with SK-OV-3 ovarian.
-- reply > 100 µM

-- ask State measured TGI of the compound CCSC(=O)C1(C)OC2CCCCC2C1=O (configuration not stated) with SK-OV-3 ovarian.
-- reply > 100 µM

-- ask State measured TGI of the compound COc1ccc2c(c1)C=C1CSCC3=Cc4cc(OC)ccc4OC13O2 with SK-OV-3 ovarian.
-- reply > 100 µM

-- ask State measured TGI of the compound O=C(O)CO/N=C1/C(c2c(O)[nH]c3ccccc23)=Nc2ccccc21 with SK-OV-3 ovarian.
-- reply 68.1 µM

-- ask State measured TGI of the compound CN(CCCN(C)CCC1CCCCC1)CCC1CCCCC1 with SK-OV-3 ovarian.
-- reply 17.1 µM

-- ask State measured TGI of the compound CN(C)c1ncnc2c1ccn2C1OC(CO)C(O)C1O (configuration not stated) with SK-OV-3 ovarian.
-- reply 21.4 µM
